Each entry below carries its measured IC50, system: UniProtKB C7C422.
PARAMETER: IC50 (µM)

INSERT INTO results (compound, output_unit, value_operator, numeric_value) VALUES
  ('Sc1nncn1/N=C/c1ccccc1Br [CP 23]', 'µM', '=', 83),
  ('O=C(O)c1ccc(/C=N/n2cnnc2S)cc1 [CP 30]', 'µM', '>', 100),
  ('Sc1nncn1/N=C/c1ccc(Br)cc1 [CP 24]', 'µM', '=', 83.1),
  ('Sc1nncn1/N=C/c1cccc(Br)c1 [CP 22]', 'µM', '=', 88.5),
  ('O=C(O)c1ccccc1/C=N/n1cnnc1S [CP 29]', 'µM', '>', 100),
  ('Sc1nncn1/N=C/c1cccc2ccccc12 [CP 18]', 'µM', '=', 52);

----------
SYSTEM_TESTED: UniProt:Q5U7L7
TEST_DESCRIPTION: VIM-2 spectrophotometric enzyme inhibition assay (meropenem hydrolysis)
Assay type: biochemical
TEST_CONDITIONS: meropenem 17 μM, 25 °C, 5 min incubation; NI = no inhibition (≤15%)
PARAMETER: % Inib vs VIM-2 (%)

INSERT INTO results (molecule_smiles, parameter, value_operator, numeric_value) VALUES
  ('O=C(O)c1ccccc1/C=N/n1c(S)nnc1-c1ccc(C(F)(F)F)cc1', '% Inib vs VIM-2', '>', 100),
  ('FC(F)(F)c1nnc(S)n1/N=C/c1cccc(Br)c1', '% Inib vs VIM-2', '=', 53),
  ('O=C(O)c1cccc(/C=N/n2c(S)nnc2-c2ccc(C(F)(F)F)cc2)c1', '% Inib vs VIM-2', '=', 42),
  ('FC(F)(F)c1nnc(S)n1/N=C/c1nn[nH]n1', '% Inib vs VIM-2', '=', 42),
  ('FC(F)(F)c1ccc(-c2nnc(S)n2/N=C/c2nn[nH]n2)cc1', '% Inib vs VIM-2', '=', 53);

----------
Here, each record is paired with measured inhibition data.
SYSTEM_TESTED: VIM-1 (Pseudomonas aeruginosa, UniProt A0A0F7KYQ8)
TEST_DESCRIPTION: VIM-1 spectrophotometric enzyme inhibition assay (nitrocefin hydrolysis)
Type: biochemical
Design: dose or concentration left out as unconfirmed
TEST_CONDITIONS: 5 min, read-out: % Inib vs VIM-1
PARAMETER: inhibition (%)

INSERT INTO measurements (molecule_smiles, numeric_value) VALUES
  ('COc1ccccc1/C=N/n1cnnc1S', 32),
  ('Sc1nncn1/N=C/c1cccc(Br)c1', 46),
  ('Sc1nncn1/N=C/c1ccccn1', 17),
  ('COc1cccc(/C=N/n2cnnc2S)c1', 14),
  ('Sc1nncn1/N=C/c1ccc(Br)cc1', 28),
  ('Sc1nncn1/N=C/c1cccc2ccccc12', 33),
  ('O=C(O)c1ccccc1/C=N/n1cnnc1S', 17),
  ('O=C(O)c1ccc(/C=N/n2cnnc2S)cc1', 18),
  ('COc1ccc(/C=N/n2cnnc2S)cc1', 15),
  ('FC(F)(F)c1ccccc1/C=N/n1cnnc1S', 46);

----------
Catalogue of compounds with associated pKi
SYSTEM_TESTED: NDM-1 (Klebsiella pneumoniae)
Construct: made in house; host or cells: E. coli BL21(DE3)
TEST_DESCRIPTION: NDM-1 spectrophotometric enzyme inhibition assay (meropenem hydrolysis)
Assay type: biochemical
TEST_CONDITIONS: substrate MEM, 25 °C, Ki determined with Dixon plots; read-out: NDM-1 Ki (Dixon plots)
pKi: −log10 of the molar value.
PARAMETER: pKi

INSERT INTO assay_data (molecule_smiles, system_tested, numeric_value) VALUES
  ('FC(F)(F)c1nnc(S)n1/N=C/c1cccc(Br)c1', 'NDM-1 (Klebsiella pneumoniae)', 4.59),
  ('Sc1nncn1/N=C/c1cccc(Br)c1', 'NDM-1 (Klebsiella pneumoniae)', 4.37);

----------
SYSTEM_TESTED: NDM-1 (Klebsiella pneumoniae, UniProt C7C422)
Construct: made in house; host or cells: E. coli BL21(DE3)
Sequence (C7C422 29-270, looked up, species assumed): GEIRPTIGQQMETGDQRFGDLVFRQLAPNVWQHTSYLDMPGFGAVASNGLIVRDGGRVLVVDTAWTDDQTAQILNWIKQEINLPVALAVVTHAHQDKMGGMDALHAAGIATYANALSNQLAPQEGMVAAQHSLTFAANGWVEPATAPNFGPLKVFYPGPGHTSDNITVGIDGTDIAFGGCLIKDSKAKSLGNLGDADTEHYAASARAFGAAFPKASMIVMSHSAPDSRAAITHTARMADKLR
TEST_DESCRIPTION: NDM-1 spectrophotometric enzyme inhibition assay (meropenem hydrolysis)
Format: biochemical
Set-up: dose or concentration left out as unconfirmed
TEST_CONDITIONS: 5 min, read-out: % Inib vs NDM-1
Respond with label 1 for inhibition values of 50% and above, label 0 for values below.

INSERT INTO results (molecule_smiles, cat) VALUES
  ('N#Cc1ccccc1/C=N/n1cnnc1S', 'label 0'),
  ('Sc1nncn1/N=C/c1ccccc1Br', 'label 1'),
  ('COc1cccc(/C=N/n2cnnc2S)c1', 'label 0'),
  ('Sc1nncn1/N=C/c1cccc2ccccc12', 'label 1'),
  ('Sc1nncn1/N=C/c1cccc(Br)c1', 'label 1'),
  ('Sc1nncn1/N=C/c1ccc(Br)cc1', 'label 1'),
  ('Sc1nncn1/N=C/c1ccccn1', 'label 0'),
  ('COc1ccccc1/C=N/n1cnnc1S', 'label 0'),
  ('COc1ccc(/C=N/n2cnnc2S)cc1', 'label 0');
